Entries and their residual activity values follow.
# System tested: NTRK1 (human)
# Protocol description: radiometric filter-binding kinase assay
# Assay conditions: compound 0.01 µM
Expressed in %, but write only the number.

{"Compound": "CNC(=O)C1[C@H]2O[C@@](C)([C@@H]1N)n1c3ccccc3c3c4c(c5c6ccccc6n2c5c31)C(=O)NC4 (some centres undefined)", "residual activity / %": 5}

Challenge: Form entry - test system: NTRK1 (human); read-out: residual activity; compound: O=C(Nc1nc2cc(C(F)(F)F)cc(NC3CC3)n2n1)c1cccnc1
Response given: 80

Challenge: Form entry - test system: NTRK1 (human); read-out: residual activity; compound: COc1cc(O)c2c(c1)[C@H]1OC1C[C@H](O)[C@H](O)C(=O)/C=C\C[C@H](C)OC2=O (some centres undefined)
Response given: 97

Challenge: Form entry - test system: NTRK1 (human); read-out: residual activity; compound: COc1ccc(N(C(=O)Nc2c(C)cccc2C)c2cc(Nc3ccc(N4CCN(C)CC4)cc3)ncn2)c(OC)c1
Response given: 98

* * *

# System tested: MAPKAPK2 (human) (UniProt P49137)
# Sequence (P49137 whole entry, looked up): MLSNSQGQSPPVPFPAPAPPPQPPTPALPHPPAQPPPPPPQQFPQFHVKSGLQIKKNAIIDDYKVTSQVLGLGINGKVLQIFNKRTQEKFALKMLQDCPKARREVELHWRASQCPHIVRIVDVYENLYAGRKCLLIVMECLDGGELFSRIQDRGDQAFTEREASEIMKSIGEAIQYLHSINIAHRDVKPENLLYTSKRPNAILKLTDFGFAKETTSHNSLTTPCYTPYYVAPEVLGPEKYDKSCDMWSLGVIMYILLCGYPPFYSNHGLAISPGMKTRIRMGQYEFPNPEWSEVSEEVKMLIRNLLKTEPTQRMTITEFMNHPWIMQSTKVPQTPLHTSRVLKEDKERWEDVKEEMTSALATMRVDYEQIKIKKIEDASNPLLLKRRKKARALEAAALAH
# Protocol description: radiometric filter-binding kinase assay
# Assay conditions: compound 0.1 µM
Entries and their residual activity values follow.

Examples from the recorded data:
{"Compound": "O=C(O)c1ccc(-c2c[nH]c3ncc(-c4ccccc4)cc23)cc1C1CCCC1", "System tested": "MAPKAPK2 (human) (UniProt P49137)", "residual activity": "107%"}
{"Compound": "CNC(=O)C1[C@H]2O[C@@](C)([C@@H]1N)n1c3ccccc3c3c4c(c5c6ccccc6n2c5c31)C(=O)NC4 (stereo not given in full)", "System tested": "MAPKAPK2 (human) (UniProt P49137)", "residual activity": "0%"}
{"Compound": "O=C(Nc1nc2cc(C(F)(F)F)cc(NC3CC3)n2n1)c1cccnc1", "System tested": "MAPKAPK2 (human) (UniProt P49137)", "residual activity": "102%"}

Moving on to another compound below.
Challenge: residual activity for O=C(NCCCNc1nc(Nc2cccc(CN3CCOCC3)c2)ncc1C1CC1)C1CCC1 ?
Response given: 106%

* * *

Entries and their residual activity values follow.
# System tested: UniProtKB O75716
# Sequence (O75716 whole entry, looked up): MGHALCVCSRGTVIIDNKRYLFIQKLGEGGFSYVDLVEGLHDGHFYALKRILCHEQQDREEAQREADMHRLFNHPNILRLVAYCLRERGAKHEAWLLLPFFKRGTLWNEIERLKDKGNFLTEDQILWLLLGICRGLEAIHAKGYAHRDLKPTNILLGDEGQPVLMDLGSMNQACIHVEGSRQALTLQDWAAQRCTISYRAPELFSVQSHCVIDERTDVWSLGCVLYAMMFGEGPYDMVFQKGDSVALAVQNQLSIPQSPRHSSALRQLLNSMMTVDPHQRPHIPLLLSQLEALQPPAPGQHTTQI
# Protocol description: radiometric filter-binding kinase assay
# Assay conditions: compound 0.1 µM

Challenge: residual activity for CN1CCN(CCOc2cc(OC3CCOCC3)c3c(Nc4c(Cl)ccc5c4OCO5)ncnc3c2)CC1 ?
Response given: 108%

Challenge: residual activity for Cc1ccc(-c2ccc3c(ccc4sc5c(c43)NC[C@@H](C)NC5=O)n2)cn1 ?
Response given: 117%

* * *

# System tested: MAP3K1 (human)
# Protocol description: radiometric filter-binding kinase assay
# Assay conditions: compound 10.0 µM
Property name: residual activity (%)
Expressed in %, but write only the number.

Examples from the recorded data:
{"Molecule": "CC(C)C[C@H](NC(=O)CNC(=O)c1cc(Cl)ccc1Cl)B1OC(=O)CC(CC(=O)O)(C(=O)O)O1 (some centres undefined)", "residual activity, %": 92}
{"Molecule": "NC1(c2ccc(-c3nc4ccn5c(=O)[nH]nc5c4cc3-c3ccccc3)cc2)CCC1", "residual activity, %": 83}
{"Molecule": "NS(=O)(=O)OC[C@@H]1C[C@@H](n2ccc3c(N[C@H]4CCc5ccccc54)ncnc32)C[C@@H]1O", "residual activity, %": 107}
{"Molecule": "NC(=O)c1ccc(-c2ccc(Oc3cncc4sc(-c5nn[nH]n5)cc34)cc2)cc1", "residual activity, %": 51}
{"Molecule": "Cc1nc(-c2ccc(OCC(C)C)c(C#N)c2)sc1C(=O)O", "residual activity, %": 96}

Challenge: residual activity for N#Cc1c(O)c2c(-c3ccc(-c4ccccc4O)cc3)csc2[nH]c1=O ?
Response given: 26

Challenge: residual activity for NCC(=O)Nc1ccc(-n2nc(C(F)(F)F)cc2-c2ccc3c(ccc4ccccc43)c2)cc1 ?
Response given: 103

Challenge: residual activity for O=C(Nc1ccccc1-c1cn2c(CN3CCNCC3)csc2n1)c1cnc2ccccc2n1 ?
Response given: 45

Challenge: residual activity for CC1=C(CO)C(=O)O[C@@H]([C@@H](C)[C@H]2CC[C@H]3[C@@H]4C[C@H]5O[C@]56[C@@H](O)C=CC(=O)[C@]6(C)C4CC[C@]23C)C1 (some centres undefined) ?
Response given: 95
